Below, each entry is listed alongside its reported interaction score.
Target: T1, 4H4073-bN
T1 chain: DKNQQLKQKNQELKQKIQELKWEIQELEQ
Test: two-hybrid library CCNG1;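 further: natural log of median RNA to DNA barcode read ratio; higher means stronger binding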

>  <Binder>
DENQQLEQENQELEQEIQELEWKIQELKQ [4H1158-bN]

>  <interaction score>
2.1

$$$$
>  <Binder>
DKIQQLKQEIQELKQKNQELEWEIQELEQ [4H2673-bN]

>  <interaction score>
-1.63

$$$$
>  <Binder>
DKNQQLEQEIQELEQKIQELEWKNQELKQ [4H3112-bN]

>  <interaction score>
-0.28

$$$$
